From: PubChem BioAssay

biological target: Fibroblast growth factor 10 (Homo sapiens); experiment: compounds binding fibroblast growth factor 10 – biochemical, small-molecule microarray, 635 nm fluorescence, primary screen (AID 1102); settings: FGF10 binding, fluorescence 635 nm, higher = more signal
valueType: composite z-score
Answers are plain numbers.

COCCCNC(=O)[C@@]1(Cc2ccccc2)COC(c2ccc(OCCCO)cc2)=N1 = 0.505
C#CCNS(=O)(=O)N(C)C = 0.296
Cc1cc(C)c(C(O)C2C=CC3C(=O)N(c4ccccc4)C(=O)C3N2Nc2ccccc2)c(C)c1 (stereo not drawn) = 0.964
COC(=O)[C@H]1N=C(c2ccc(OCCCO)cc2)O[C@H]1c1ccccc1CN=[N+]=[N-] = -0.418

Fill in composite z-score for each of the 4 molecules listed.
1. Cc1ccccc1C(O)C1C=CC2C(=O)N(C)C(=O)C2N1Nc1ccc([N+](=O)[O-])cc1[N+](=O)[O-] (stereo not drawn)
2. NC(=O)NCC#Cc1ccc2c(c1)[C@]1(C(=O)N2)[C@H](c2ccc(O)cc2)N2[C@H](c3ccccc3)[C@H](c3ccccc3)OC(=O)[C@H]2[C@@H]1C(N)=O
3. [N-]=[N+]=NCc1ccccc1[C@H]1OC(c2ccc(OCCCO)cc2)=N[C@@]1(Cc1ccccc1N=[N+]=[N-])C(=O)N1CCCCC1
4. O=C1N(CCS(=O)(=O)c2ccccc2)Cc2ccccc2C[C@@]12COC(c1ccc(OCCCO)cc1)=N2

1. 1.11
2. -0.0652
3. 1.42
4. 1.07

----------
target: Torsin-1A (Homo sapiens); experiment: TOR1A wild-type binding on microarray – cell lysate, small-molecule microarray, lysate, 635/667 nm, primary screen (AID 1149); conditions: COS7 hTOR1A-WT lysate, 635 nm fluorescence, higher = more signal
valueType: composite z-score
Numbers only.

Guide cases for composite z-score, answers given:
C=CCC(OC(C)=O)[C@@H]1[C@@H](N(Cc2cccc3ccccc23)C(=O)Cc2ccc(F)cc2)c2cc(OCCCO)ccc2N1C(=O)Cc1ccc(OC)cc1 (some centres undefined) = -0.149
O=C1c2ccccc2C(=O)C2CC([C@H]3Oc4ccccc4S(=O)(=O)N4CCC[C@@H]34)=CCC12 (some centres undefined) = 0.208
C=CCN1C(=O)[C@@]2(O[C@@H](CCn3cc([C@H](O)c4ccccc4)nn3)[C@H]([Si](C)(C)c3ccc(OC)cc3)[C@H]2C)c2cc(NC(=O)c3ccc(OC)cc3)ccc21 = -0.0041
CCCCC(O)C1C=CC2C(=O)N(Cc3ccccc3)C(=O)C2N1n1cnnc1 (centres undefined) = 0.0569
C[C@@H]1ON(c2ccccc2)[C@H](c2ccccc2)[C@H]1C(=O)N1C(=O)OC[C@H]1Cc1ccccc1 = 0.242

Fill in composite z-score for each of the 7 compounds listed.
1. COC(=O)C(CC#Cc1ccc2c(c1)[C@]1(C(=O)N2)[C@H](c2ccccc2OCCO)N2[C@H](c3ccccc3)[C@H](c3ccccc3)OC(=O)[C@H]2[C@@H]1C(=O)Nc1nc2ccccc2s1)C(=O)OC
2. CC(C)C(CO)N1C(=O)[C@@H]2[C@H]3C(=O)OCC=C[C@H]3OC23C=CCN(CCN2CCOCC2)C(=O)[C@@H]13 (some centres undefined)
3. CC(=O)NCCCC[C@@H]1NC(=O)[C@H]2C[C@@H](C(=O)NCCCCCN)[C@@H](c3cccc(OCCO)c3)N2C1=O
4. O=C1O[C@@H](c2ccccc2)[C@@H](c2ccccc2)N2[C@@H](c3ccc(O)cc3)[C@]3(C(=O)Nc4ccc(C#CC5(O)CCCCCC5)cc43)[C@@H](C(=O)N3CCN(c4ncccn4)CC3)[C@H]12
5. CCCCC=C[C@@H](NC(=O)CCc1ccccc1)c1ccccc1
6. O=C(NCc1ccccc1)[C@]1(Cc2ccccc2)N=C(c2ccc(OCCCO)cc2)O[C@@H]1c1ccccc1
7. [N-]=[N+]=Nc1ccccc1[C@H]1OC(c2ccc(OCCCO)cc2)=N[C@@]1(Cc1ccccc1)C(=O)NCc1ccccc1

[0.283, -0.412, 0.455, 1.42, 0.677, -0.0377, 0.104]

Fill in composite z-score for each of the 2 compounds listed.
1. COC(=O)[C@@]1(Cc2ccc(OC)cc2)[C@H]2c3cc(C(=O)N(C)C)n(CCF)c3C[C@H]2CN1C(=O)c1ccccc1
2. [N-]=[N+]=Nc1ccccc1C[C@]1(C(=O)NCCN2CCOCC2)N=C(c2ccc(OCCCO)cc2)O[C@H]1c1ccccc1N=[N+]=[N-]

0.3
0.818

----------
experiment: probe aWnt5a binding to arrayed compounds – biochemical, biotinylated probe, 635/667 nm fluorescence, primary screen (AID 1113); details: small-molecule microarray, higher = more signal;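 further: score merges 667 nm fluorescence intensity with signal-to-noise per printed feature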
Threshold rule: composite z-score greater than or equal to -0.02 is Criterion met; below that, Criterion not met.

COc1ccccc1CN1C(=O)c2ccccc2[C@@]2(Cc3ccccc3N(C3CC3)C2=O)[C@@H]1c1ccc(CO)cc1 = Criterion not met
COC(=O)[C@H]1N=C(c2ccc(OCCCO)cc2)O[C@H]1c1ccccc1CN=[N+]=[N-] = Criterion met
CCCNC(=O)[C@@]1(Sc2ccc(C)cc2)CC(=O)N(Cc2ccccc2)[C@@H]1c1ccc(CO)cc1I = Criterion not met
COCCOC(=O)N1C(=O)[C@@]2(c3cc(C#CCCO)ccc31)[C@H](c1ccc(OCCO)cc1)N1[C@H](c3ccccc3)[C@H](c3ccccc3)OC(=O)[C@H]1[C@@H]2C(=O)N1CCc2cc(OC)c(OC)cc2C1 = Criterion not met
COC(=O)[C@@]1(Cc2ccc(OC)cc2)[C@H]2c3cc(C(=O)N(C)C)n(Cc4cc(C)n(C)n4)c3C[C@H]2CN1C(=O)c1ccccc1 = Criterion met

Could you now consider this next molecule?
In plain terms: is recorded composite z-score at least -0.02 for C[N+](C)(C)CCCCNC(=O)[C@H]1C[C@H]2C(=O)NCC(=O)N2[C@H]1c1ccc(O)cc1 ?
Criterion not met

----------
system: Lefty1; test: Lefty1 protein binding to printed compounds – biochemical, small-molecule microarray, 635/667 nm fluorescence, primary screen (AID 1139); details: fluorescence 635/667, higher = more signal
Threshold rule: composite z-score greater than or equal to -0.2 is Yes; below that, No.

# count of solved cases: 4
COc1ccccc1CN1C(=O)c2ccccc2[C@@]2(Cc3ccccc3N(C3CC3)C2=O)[C@@H]1c1ccc(CO)cc1 = Yes
C=C[C@H](C)[C@H](OC(=O)Nc1ccc(SC)cc1)c1ccc(O)c2ccccc12 = Yes
COCCOC(=O)N1C(=O)[C@@]2(c3ccccc31)[C@H](c1ccccc1OCCO)N1[C@H](c3ccccc3)[C@H](c3ccccc3)OC(=O)[C@H]1[C@@H]2C(=O)N1CCc2cc(OC)c(OC)cc2C1 = Yes
COC(=O)[C@@]1(Cc2ccc(F)cc2)[C@@H]2[C@@H](CC(=O)[C@H]2CC(=O)C(=O)N2CCCC2)CN1C(=O)c1ccccc1 = No

In plain terms: is recorded composite z-score at least -0.2 for COc1ccc(CCNC(=O)[C@@H]2c3ccccc3C(=O)N(Cc3ccccc3C(F)(F)F)[C@H]2c2ccc(CO)cc2)cc1 ?
No

What do we get for O=C(Nc1cc(Br)ccc1C(=O)NCc1cccc(O)c1)c1ccccc1 ?
No

What do we get for O=C1C[C@@](C(=O)O)(c2ccc([N+](=O)[O-])cc2)[C@@H](c2ccc(CO)cc2)N1CC12CC3CC(CC(C3)C1)C2 ?
Yes

----------
assay: probe aDKK1 binding to arrayed compounds – biochemical, biotinylated probe, 635/667 nm fluorescence, primary screen (AID 1099); conditions: small-molecule microarray, higher = more signal;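 further: score merges 667nm spot fluorescence with signal to noise across triplicate slides; reference of the scale not given here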
valueType: composite z-score

CCCCC(O)C1C=CC2C(=O)N(Cc3ccccc3)C(=O)C2N1n1cnnc1 (stereo not given) = -0.0884
CCCC[C@@H](O)C1=C(COc2ccccc2)Cn2c(=O)n(-c3ccccc3)c(=O)n2[C@H]1CO = -0.396
C=CCC(OC(C)=O)[C@@H]1[C@@H](N(Cc2cccc3ccccc23)C(=O)Cc2ccc(F)cc2)c2cc(OCCCO)ccc2N1C(=O)Cc1ccc(OC)cc1 (stereo not given in full) = -0.0312
CCCCC(CC)C(O)C1C=CC2C(=O)NC(=O)C2N1Nc1ccccn1 (stereo not given) = 0.189
OCc1ccc(-c2cc[n+](Cc3cccc(OC(F)(F)F)c3)cc2)cc1 = 0.44

Fill in composite z-score for each of the 8 compounds listed.
1. C=CCOc1ccc([C@@H]2CC=C(C(=O)OCC)[C@H](c3cccc(Br)c3)N2S(=O)(=O)c2ccc(C)cc2)cc1
2. CC(C)C[C@@H]1NC(=O)[C@@H]2C[C@H](C(=O)NCCCC[N+](C)(C)C)[C@H](c3cccc(OCCO)c3)N2C1=O
3. COc1cc(NN2C(C(O)c3ccc(I)cc3)C=CC3C(=O)N(C)C(=O)C32)cc(OC)c1OC (stereo not given)
4. Cc1ccc(S[C@]2(C(=O)NCC(C)C)CC(=O)N(C3CCCCC3)[C@@H]2c2ccc(CO)cc2I)cc1
5. C=CCC(OC(C)=O)[C@@H]1[C@@H](N(Cc2ccc(-c3ccccc3)cc2)C(=O)c2cccc3ccccc23)c2cc(OCCCO)ccc2N1C(=O)c1ccc2ccccc2n1 (stereo not given in full)
6. [N-]=[N+]=NCc1ccccc1[C@H]1OC(c2ccc(OCCCO)cc2)=N[C@@]1(Cc1ccccc1)C(N)=O
7. COc1cccc(C)c1NC(=O)O[C@H]1[C@H](OC(=O)Nc2ccccc2)[C@H](OC(=O)Nc2ccccc2)[C@@H](OC)O[C@@H]1CO
8. COCCOC(=O)N1C(=O)[C@@]2(c3cc(C#CCNC(N)=O)ccc31)[C@H](C(=O)N1CCCCCCC1)[C@H]1C(=O)O[C@H](c3ccccc3)[C@H](c3ccccc3)N1[C@@H]2c1ccc(OCCO)cc1

1. 0.735
2. -0.184
3. 0.986
4. 0.0006
5. 0.0158
6. 1.19
7. 0.245
8. 0.774

Fill in composite z-score for each of the 2 compounds listed.
1. COC(=O)[C@@]1(Cc2ccc(F)cc2)[C@H]2c3cc(C(=O)N(C)C)n(CCSCCO)c3C[C@H]2CN1C(=O)c1ccccc1
2. O=C1NC(=O)C2C1C=CC(C(O)c1ccc(-c3ccccc3)s1)N2Nc1ccccn1 (stereo not given)

[0.983, 1.09]
